These measurements were taken from patent US8247211B2.

# System: Enterococcus sp.
# assay-info: In vitro antibacterial evaluation: minimum inhibitory concentration (MIC), broth dilution method
# Assay type: cell-based
# condition-set: Enterococcus faecalis (GC 4554); 18 hours at 35° C.
endpoint-label: MIC Enterococcus faecalis (GC 4554) (µg/mL)
Give the value in µg/mL but do not write µg/mL after it.

Recorded results for 2 compounds are shown here.
CC(c1ccccc1)C1NC(=O)CNC(=O)C(CO)NC(=O)C(C(O)C2CNC(=N)N2C2OC(CO)C(O)C(O)C2O)NC(=O)C(C(O)C2CNC(=N)N2)NC(=O)C(Cc2ccc(OC3OC(CO)C(OC4OC5COC6(CCCCC6(C)C)OC5C(O)C4O)C(O)C3O)cc2)NC1=O (centres unmarked)	4
COc1ccc2cc(COC3C(CO)OC(OC4C(CO)OC(Oc5ccc(CC6NC(=O)C(C(C)c7ccccc7)NC(=O)CNC(=O)C(CO)NC(=O)C(CC7CNC(=N)N7C7OC(CO)C(O)C(O)C7O)NC(=O)C(CC7CNC(=N)N7)NC6=O)cc5)C(O)C4O)C(O)C3O)ccc2c1 (centres unmarked) [Example 245a]	8

query: # lookup: MIC Enterococcus faecalis (GC 4554) of CC(c1ccccc1)C1NC(=O)CNC(=O)C(CO)NC(=O)C(C(O)C2CNC(=N)N2C2OC(CO)C(O)C(O)C2O)NC(=O)C(C(O)C2CNC(=N)N2)NC(=O)C(Cc2ccc(OC3OC(CO)C(OC4OC5COC(c6cccc(Oc7cccc(C(F)(F)F)c7)c6)OC5C(O)C4O)C(O)C3O)cc2)NC1=O (centres unmarked)
result: 32
